Values compiled from ChEMBL document CHEMBL3593211.

Kindly supply the reported IC50 values for the records listed here.
System: NCI-H460
Test: Cytotoxicity against human NCI-H460 cells incubated for 72 hrs by cell-titer 96 aqueous non-radioactive cell proliferation assay
Format: functional, cell-based
Conditions: NCI-H460, 72 h

C/C(=C\CC/C=C(\C)CC/C=C(\C)CCC(O)C(C)(C)O)C/C=C/[C@@]1(C)CC[C@@H](C(C)(C)O)O1 (some centres undefined) | 9 µM
CC(=O)OCC(O)(C(O)CO)[C@@H]1C[C@@H]2[C@@]3(C)CCCC(C)(C)[C@@H]3CC[C@@]2(C)O1 (some centres undefined) | > 10 µM
CC1(C)CC[C@]2(C(=O)O)CC[C@]3(C)C(=CC[C@@H]4[C@@]5(C)CC[C@H](O[C@@H]6O[C@H](C(=O)O)[C@@H](O)[C@H](O)[C@H]6OC6O[C@H](CO)[C@@H](O)[C@H](O)[C@H]6O)C(C)(C)[C@@H]5CC[C@]43C)[C@@H]2C1 (some centres undefined) | 7 µM
CC1(C)CCC[C@]2(C)[C@H]3C[C@@H](/C(=C\CO)CO)O[C@]3(C)CC[C@@H]12 | > 10 µM
C/C(=C\CC/C=C(\C)CC/C=C(\C)CC[C@@H](O)C(C)(C)O)CC/C=C(\C)CC[C@@H](O)C(C)(C)O | 7 µM

Need IC50 for each of these compounds.
1. CC(=O)OC[C@]1([C@@H]2C[C@@H]3[C@@]4(C)CCCC(C)(C)[C@@H]4CC[C@@]3(C)O2)O[C@H]1CO
2. CC1(C)CCC[C@]2(C)[C@H]3C[C@@H]([C@]4(CO)O[C@@H]4CO)O[C@]3(C)CC[C@@H]12
3. CC1(C)CCC[C@]2(C)[C@H]3C[C@@H]([C@@]4(CO)O[C@H]4CO)O[C@]3(C)CC[C@@H]12
4. C/C(=C\CCC/C(C)=C/C(=O)C[C@@]1(C)CC[C@@H](C(C)(C)O)O1)CC/C=C(\C)CCC(O)C(C)(C)O (some centres undefined)
5. CC(=O)OC/C(=C/CO)[C@@H]1C[C@@H]2[C@@]3(C)CCCC(C)(C)[C@@H]3CC[C@@]2(C)O1
6. CC1(C)CCC[C@]2(C)[C@H]3C[C@@H](C(O)(CO)C(O)CO)O[C@]3(C)CC[C@@H]12 (some centres undefined)

Reply:
> 10 µM
> 10 µM
> 10 µM
6 µM
> 10 µM
> 10 µM

Need IC50 for each of these compounds.
1. CC(=O)OC[C@@]1([C@@H]2C[C@@H]3[C@@]4(C)CCCC(C)(C)[C@@H]4CC[C@@]3(C)O2)O[C@@H]1CO
2. CC1(C)CC[C@]2(C(=O)O)CC[C@]3(C)C(=CC[C@@H]4[C@@]5(C)CC[C@H](O[C@@H]6O[C@H](C(=O)O)[C@@H](O)[C@H](O)[C@H]6O)C(C)(C)[C@@H]5CC[C@]43C)[C@@H]2C1
3. CC(=O)OCC(O)C(O)(CO)[C@@H]1C[C@@H]2[C@@]3(C)CCCC(C)(C)[C@@H]3CC[C@@]2(C)O1 (some centres undefined)

Reply:
["> 10 µM", "6 µM", "> 10 µM"]
